target: UniProt I6Y9J2; type: binding
Decision: Area (%) 15 min, assignment Unfragmented (2) >= 20% yields 1 (yes), all other cases yield 0 (no).

1) Cc1cc(C)cc([C@@H]2O[C@H]2C(=O)[C@@H]2O[C@H]2c2cc(C)cc(C)c2)c1 (relative stereo); 1 (yes)
2) O=C(C1OC1c1ccccc1OC(F)(F)F)C1OC1c1ccccc1OC(F)(F)F (stereo not shown); 1 (yes)

Input: In plain terms: is recorded Area (%) 15 min, assignment Unfragmented (2) at least 20% for COc1ccccc1C1OC1C(=O)C1OC1c1ccccc1OC (mixture of isomers) ?
Output: 1 (yes)

Input: Threshold query (Area (%) 15 min, assignment Unfragmented (2) >= 20%) on O=C(c1ccccc1)C1OC1c1ccccc1 (racemic) [Epoxide 12, reference compound]
Output: 0 (no)

Input: Kindly determine if Area (%) 15 min, assignment Unfragmented (2) recorded for O=C1C2(CCC13OC3c1ccccc1)OC2c1ccccc1 (stereo not shown) is above or exactly 20%.
Output: 1 (yes)

Input: Confirm if Area (%) 15 min, assignment Unfragmented (2) reported for the molecule O=C1C2(CCCC13OC3c1ccccc1)OC2c1ccccc1 (stereo not shown) is 20% or above.
Output: 0 (no)

Input: Does Area (%) 15 min, assignment Unfragmented (2) meet or surpass 20% for O=C(C1OC1c1ccc(OC(F)(F)F)cc1)C1OC1c1ccc(OC(F)(F)F)cc1 (stereo not shown) ?
Output: 0 (no)

* * *

biological target: LdtMt2 (Mycobacterium tuberculosis); type: binding
# cutoff 80% applies to Area (%) 15 min, assignment Unmodified LdtMt2; >= gives Y, < gives N

Example entries and their recorded answers appear below.
1) Cc1cccc(C)c1C1OC1C(=O)C1OC1c1c(C)cccc1C (mixture of isomers); Y
2) O=C1C2(CCC13OC3c1ccccc1)OC2c1ccccc1 (stereo not drawn); N
3) O=C1C2(CCCCC13OC3c1ccccc1)OC2c1ccccc1 (stereo not drawn); Y
4) COc1ccccc1C1OC1C(=O)C1OC1c1ccccc1OC (mixture of isomers); N
5) O=C(C1OC1c1ccccc1OC(F)(F)F)C1OC1c1ccccc1OC(F)(F)F (stereo not drawn); N

Input: Determine whether measured Area (%) 15 min, assignment Unmodified LdtMt2 meets or exceeds 80% for O=C(c1ccccc1)C1OC1c1ccccc1 (racemic) [Epoxide 12, reference compound]
Output: Y

Input: Quick check, Area (%) 15 min, assignment Unmodified LdtMt2 >= 80%? Cc1cc(C)cc([C@@H]2O[C@H]2C(=O)[C@@H]2O[C@H]2c2cc(C)cc(C)c2)c1 (relative stereo)
Output: N

Input: hey, is Area (%) 15 min, assignment Unmodified LdtMt2 for this one >= 80%? O=C(C1OC1c1ccc(OC(F)(F)F)cc1)C1OC1c1ccc(OC(F)(F)F)cc1 (stereo not drawn)
Output: N

Input: Check this compound for Area (%) 15 min, assignment Unmodified LdtMt2 at or above 80%: O=C1C2(CCCC13OC3c1ccccc1)OC2c1ccccc1 (stereo not drawn)
Output: Y

* * *

molecular target: LdtMt2 (Mycobacterium tuberculosis, UniProt I6Y9J2); format: binding
Sequence (I6Y9J2 56-408): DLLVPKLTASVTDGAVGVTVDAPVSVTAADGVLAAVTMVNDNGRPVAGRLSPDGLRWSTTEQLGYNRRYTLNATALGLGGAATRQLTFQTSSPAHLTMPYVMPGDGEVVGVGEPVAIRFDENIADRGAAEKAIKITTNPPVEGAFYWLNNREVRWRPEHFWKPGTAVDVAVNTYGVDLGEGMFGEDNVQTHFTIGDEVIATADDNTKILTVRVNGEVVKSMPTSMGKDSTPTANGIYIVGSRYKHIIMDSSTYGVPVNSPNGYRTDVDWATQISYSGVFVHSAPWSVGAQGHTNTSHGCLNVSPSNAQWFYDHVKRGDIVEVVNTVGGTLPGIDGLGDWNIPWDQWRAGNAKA
measured-attribute: Area (%) 24 h, assignment Retro-aldol fragment (3)
Note: a bare number is incomplete; add the unit.

1) Cc1cccc(C)c1C1OC1C(=O)C1OC1c1c(C)cccc1C (mixture of isomers) [DEK 8]; 16.3%
2) O=C1C2(CCC13OC3c1ccccc1)OC2c1ccccc1 (stereo not shown) [DEK 9]; 90.9%
3) O=C(C1OC1c1ccccc1OC(F)(F)F)C1OC1c1ccccc1OC(F)(F)F (stereo not shown) [DEK 6]; 93.2%

Recorded result, O=C(C1OC1c1ccc(OC(F)(F)F)cc1)C1OC1c1ccc(OC(F)(F)F)cc1 (stereo not shown) [DEK 4] , Area (%) 24 h, assignment Retro-aldol fragment (3): 97.6%

In plain terms, Cc1cc(C)cc([C@@H]2O[C@H]2C(=O)[C@@H]2O[C@H]2c2cc(C)cc(C)c2)c1 (relative stereo) [DEK 7] has a documented Area (%) 24 h, assignment Retro-aldol fragment (3) of 70.3%

Sure, the documented Area (%) 24 h, assignment Retro-aldol fragment (3) for COc1ccccc1C1OC1C(=O)C1OC1c1ccccc1OC (mixture of isomers) [DEK 5] is 39.6%

# compound O=C(c1ccccc1)C1OC1c1ccccc1 (racemic) [Epoxide 12, reference compound] ; its Area (%) 24 h, assignment Retro-aldol fragment (3) = 87.2%

* * *

Area (%) 15 min, assignment Retro-aldol fragment (3) values, listed per item
target: LdtMt2 (Mycobacterium tuberculosis); assay type: binding
# value in %; strip the unit string

For this compound ( O=C1C2(CCC13OC3c1ccccc1)OC2c1ccccc1 (stereo not shown) [DEK 9] ), measured Area (%) 15 min, assignment Retro-aldol fragment (3) is 68.8

Entry under test: O=C(c1ccccc1)C1OC1c1ccccc1 (racemic) [Epoxide 12, reference compound] . Its Area (%) 15 min, assignment Retro-aldol fragment (3) was 0.0

# compound O=C(C1OC1c1ccc(OC(F)(F)F)cc1)C1OC1c1ccc(OC(F)(F)F)cc1 (stereo not shown) [DEK 4] ; its Area (%) 15 min, assignment Retro-aldol fragment (3) = 18.1

// field: Area (%) 15 min, assignment Retro-aldol fragment (3); key: Cc1cccc(C)c1C1OC1C(=O)C1OC1c1c(C)cccc1C (mixture of isomers) [DEK 8] ; value = 0.0

Record O=C(C1OC1c1ccccc1OC(F)(F)F)C1OC1c1ccccc1OC(F)(F)F (stereo not shown) [DEK 6] . Reported Area (%) 15 min, assignment Retro-aldol fragment (3): 11.6

What the record says about COc1ccccc1C1OC1C(=O)C1OC1c1ccccc1OC (mixture of isomers) [DEK 5] : Area (%) 15 min, assignment Retro-aldol fragment (3) is 9.0

// Cc1cc(C)cc([C@@H]2O[C@H]2C(=O)[C@@H]2O[C@H]2c2cc(C)cc(C)c2)c1 (relative stereo) [DEK 7] : Area (%) 15 min, assignment Retro-aldol fragment (3) value = 43.7

* * *

molecular target: LdtMt2 (Mycobacterium tuberculosis, UniProt I6Y9J2); assay type: binding
Form field: Area (%) 24 h, assignment Unfragmented (2) (one value per entry).
Quick note: give the figure in %, leave out the unit.

Observe how each entry below is paired with its result.
1) O=C1C2(CCCC13OC3c1ccccc1)OC2c1ccccc1 (stereo not shown) [DEK 10]; 9.8
2) O=C(C1OC1c1ccccc1OC(F)(F)F)C1OC1c1ccccc1OC(F)(F)F (stereo not shown) [DEK 6]; 0.0

Lab note: O=C(C1OC1c1ccc(OC(F)(F)F)cc1)C1OC1c1ccc(OC(F)(F)F)cc1 (stereo not shown) [DEK 4] gave Area (%) 24 h, assignment Unfragmented (2) of 0.0

Cc1cc(C)cc([C@@H]2O[C@H]2C(=O)[C@@H]2O[C@H]2c2cc(C)cc(C)c2)c1 (relative stereo) [DEK 7] yielded Area (%) 24 h, assignment Unfragmented (2) of 0.0

* * *

target: LdtMt2 (Mycobacterium tuberculosis); format: binding
Some compounds, each annotated with its measured Area (%) 24 h, assignment Unmodified LdtMt2.
State the answer as a number, implicitly in %.

Looking up O=C(C1OC1c1ccccc1OC(F)(F)F)C1OC1c1ccccc1OC(F)(F)F (stereo not drawn) , I see its Area (%) 24 h, assignment Unmodified LdtMt2 listed as 2.6

* * *

molecular target: LdtMt2 (Mycobacterium tuberculosis); type: binding
measured-attribute: Area (%) 24 h, assignment Unfragmented (2)
Use % as the unit, but write only the number.

These solved cases illustrate the format of a correct answer.
1) O=C(c1ccccc1)C1OC1c1ccccc1 (racemic) [Epoxide 12, reference compound]; 0.0
2) O=C1C2(CCC13OC3c1ccccc1)OC2c1ccccc1 (stereo not drawn); 0.0

// switching to the query compound
What the record says about COc1ccccc1C1OC1C(=O)C1OC1c1ccccc1OC (mixture of isomers) : Area (%) 24 h, assignment Unfragmented (2) is 0.0

* * *

target: LdtMt2 (Mycobacterium tuberculosis, UniProt I6Y9J2); assay: biochemical
The entries below are paired with their reported kinact/KI LdtMt2.
Please state the figure in M⁻¹ s⁻¹; there is no need to write the unit.

Worked cases, kinact/KI LdtMt2 given:
1) Cc1cc(C)cc([C@@H]2O[C@H]2C(=O)[C@@H]2O[C@H]2c2cc(C)cc(C)c2)c1 (relative stereo); 80.9
2) O=C1C2(CCC13OC3c1ccccc1)OC2c1ccccc1 (stereo not shown); 25.8
3) O=C(C1OC1c1ccccc1OC(F)(F)F)C1OC1c1ccccc1OC(F)(F)F (stereo not shown); 140.6

Turning now to a further molecule:
Reported kinact/KI LdtMt2 for COc1ccccc1C1OC1C(=O)C1OC1c1ccccc1OC (mixture of isomers) was 61.1

* * *

target: LdtMt2 (Mycobacterium tuberculosis, UniProt I6Y9J2); format: binding
Each entry gets NO if its Area (%) 24 h, assignment Unmodified LdtMt2 stays under 70%, and YES if its Area (%) 24 h, assignment Unmodified LdtMt2 is 70% or above.

Worked examples follow.
1) O=C(c1ccccc1)C1OC1c1ccccc1 (racemic) [Epoxide 12, reference compound]; NO
2) Cc1cc(C)cc([C@@H]2O[C@H]2C(=O)[C@@H]2O[C@H]2c2cc(C)cc(C)c2)c1 (relative stereo) [DEK 7]; NO
3) O=C1C2(CCCCC13OC3c1ccccc1)OC2c1ccccc1 (centres unmarked) [DEK 11]; YES
4) COc1ccccc1C1OC1C(=O)C1OC1c1ccccc1OC (mixture of isomers) [DEK 5]; NO
5) O=C(C1OC1c1ccc(OC(F)(F)F)cc1)C1OC1c1ccc(OC(F)(F)F)cc1 (centres unmarked) [DEK 4]; NO

Input: Hi, just wondering whether O=C1C2(CCCC13OC3c1ccccc1)OC2c1ccccc1 (centres unmarked) [DEK 10] shows Area (%) 24 h, assignment Unmodified LdtMt2 of 70% or higher.
Output: YES

Input: Confirm if Area (%) 24 h, assignment Unmodified LdtMt2 reported for the compound O=C1C2(CCC13OC3c1ccccc1)OC2c1ccccc1 (centres unmarked) [DEK 9] is 70% or above.
Output: NO

Hey, just so you know, these numbers are from paper PMC10601815.
